Values were extracted from paper PMC9522516.

For each of the compounds below, state its inhibition at 2000 µM.
# TESTED TARGET: Lipase (Diutina rugosa)
# Construct: gene LIP1
# Sequence (P20261 16-549): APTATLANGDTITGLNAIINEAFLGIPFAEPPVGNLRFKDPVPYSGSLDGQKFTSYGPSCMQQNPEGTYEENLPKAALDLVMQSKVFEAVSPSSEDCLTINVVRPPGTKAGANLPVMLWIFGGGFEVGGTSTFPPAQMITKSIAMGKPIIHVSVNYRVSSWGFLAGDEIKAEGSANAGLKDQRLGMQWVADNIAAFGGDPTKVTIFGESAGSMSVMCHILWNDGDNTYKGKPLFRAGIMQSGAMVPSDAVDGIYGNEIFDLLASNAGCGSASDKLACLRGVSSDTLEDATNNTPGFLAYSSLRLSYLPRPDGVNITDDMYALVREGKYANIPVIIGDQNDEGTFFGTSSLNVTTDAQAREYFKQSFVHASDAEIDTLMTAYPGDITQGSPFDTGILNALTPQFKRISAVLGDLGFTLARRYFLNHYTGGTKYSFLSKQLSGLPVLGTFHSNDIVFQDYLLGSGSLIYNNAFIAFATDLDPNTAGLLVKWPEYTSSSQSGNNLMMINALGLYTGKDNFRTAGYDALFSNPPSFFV
# PROCEDURE SUMMARY: lipase activity assay, personal glucose meter readout, % inhibition at […]
# Type: biochemical
Write down the numeric answer in % and omit the unit.

Q: Report measured inhibition at 2000 µM; entry is Oc1cc(O)c2c(c1)O[C@H](c1ccc(O)c(O)c1)[C@H](O)C2 [Epicatechin]
Result: 42.8

Q: Assign inhibition at 2000 µM to the following record: Oc1cc(O)c2c(c1)O[C@H](c1cc(O)c(O)c(O)c1)[C@H](O)C2 [(−)-Epigallocatechin]
Result: 47.2

Q: Please supply the value of reported inhibition at 2000 µM for the item O=C(/C=C/c1ccc(O)c(O)c1)O[C@H](Cc1ccc(O)c(O)c1)C(=O)O [Rosmarinic acid]
Result: 39.3

Q: Determine its reported inhibition at 2000 µM: O=C(O[C@@H]1Cc2c(O)cc(O)cc2O[C@@H]1c1ccc(O)c(O)c1)c1cc(O)c(O)c(O)c1 [(−)-Epicatechin gallate]
Result: 46.5
